Data origin: paper PMC7259638

System: MRP
Protocol Notes: Effects of influx/efflux transporter inhibitors and CO on morroniside transport in Caco-2 cell monolayers
Format: in vitro ADME, human
Test Parameters: human, Caco-2, pH 7.4, with MK571 100 μM; 25 μM morroniside; AP to BL; with MK 571 100 μM; read-out: PappAB (mean)
Endpoint Name: Papp A→B at 180 min, 25 μM (×10⁻⁶ cm/s)
Numbers only, in ×10⁻⁶ cm/s.

Q: Name the recorded Papp A→B at 180 min, 25 μM of the item COC(=O)C1=CO[C@@H](O[C@@H]2O[C@H](CO)[C@@H](O)[C@H](O)[C@H]2O)[C@@H]2[C@H](C)O[C@@H](O)C[C@H]12 [morroniside, Morroniside] in your answer.
Result: 7.55

====

System: MRP3
Protocol Notes: Effects of influx/efflux transporter inhibitors and CO on morroniside transport in Caco-2 cell monolayers
Format: in vitro ADME, human
Test Parameters: human, Caco-2, pH 7.4, with benzbromarone 50 μM, 25 μM morroniside; with benzbromarone 50 μM (MRP3 inhibitor); read-out: Efflux ratio P
Endpoint Name: efflux ratio at 180 min, 25 μM
One number for each entry.

Q: Name the recorded efflux ratio at 180 min, 25 μM of the item COC(=O)C1=CO[C@@H](O[C@@H]2O[C@H](CO)[C@@H](O)[C@H](O)[C@H]2O)[C@@H]2[C@H](C)O[C@@H](O)C[C@H]12 [morroniside, Morroniside] in your answer.
Result: 1.72

====

System: MRP
Protocol Notes: Effects of influx/efflux transporter inhibitors and CO on morroniside transport in Caco-2 cell monolayers
Format: in vitro ADME, human
Test Parameters: human, Caco-2, pH 7.4, with MK571 100 μM; 25 μM morroniside; BL to AP; with MK 571 100 μM; read-out: PappBA (mean)
Endpoint Name: Papp B→A at 180 min, 25 μM (×10⁻⁶ cm/s)
One number for each entry, in ×10⁻⁶ cm/s.

Q: For the compound COC(=O)C1=CO[C@@H](O[C@@H]2O[C@H](CO)[C@@H](O)[C@H](O)[C@H]2O)[C@@H]2[C@H](C)O[C@@H](O)C[C@H]12 [morroniside, Morroniside] , give its reported Papp B→A at 180 min, 25 μM.
Result: 3.01

====

Test system: Caco-2 cell monolayers
Protocol Notes: Effects of influx/efflux transporter inhibitors and CO on morroniside transport in Caco-2 cell monolayers
Type: in vitro ADME, human
Test Parameters: BL to AP; morroniside given as CO 0.63 mg/mL (containing 25 μM morroniside)
Endpoint Name: PappBA (mean) (×10⁻⁶ cm/s)
One number for each entry, in ×10⁻⁶ cm/s.

Q: Report PappBA (mean) under test system Caco-2 cell monolayers for COC(=O)C1=CO[C@@H](O[C@@H]2O[C@H](CO)[C@@H](O)[C@H](O)[C@H]2O)[C@@H]2[C@H](C)O[C@@H](O)C[C@H]12 [morroniside, Morroniside] .
Result: 2.11

====

Protocol Notes: Transport of morroniside across Caco-2 cell monolayers (bidirectional, concentration and pH)
Assay type: in vitro ADME, human
Test Parameters: human, Caco-2, pH 7.4; 100 μM morroniside; BL to AP; over 3 h
Endpoint Name: Papp B→A at 180 min, 100 μM (×10⁻⁶ cm/s)
Answers are plain numbers, in ×10⁻⁶ cm/s.

Q: Item COC(=O)C1=CO[C@@H](O[C@@H]2O[C@H](CO)[C@@H](O)[C@H](O)[C@H]2O)[C@@H]2[C@H](C)O[C@@H](O)C[C@H]12 [morroniside, Morroniside] : provide Papp B→A at 180 min, 100 μM
Result: 2.67
